Source listed as ChEMBL document CHEMBL5346968.

// Alpha-1A adrenergic receptor (Homo sapiens) Ki records
reportedProperty: Ki (nM)

I. COc1ccccc1N1CCN(CCCNC(=O)NCc2ccccc2-c2ccccc2)CC1
II. COc1ccccc1N1CCN(CCCNC(=O)Nc2ccccc2-c2ccccc2)CC1
Ask: Choose between I and II : whose measured Ki value is numerically larger? Indicate which entry you chose by stating its label.
Result: I
(I: 11 nM, II: 7.1 nM)

* * *

biological target: D(4) dopamine receptor (Homo sapiens); experiment: Agonist activity at human dopamine D4 receptor transfected in HEK293T cells co-transfected with Galpha-qi assessed as activation of GPCR-mediated receptor signaling incubated for 90 mins by IP-one HTRF assay; assay type: functional, cell-based
Sequence (P21917 whole entry): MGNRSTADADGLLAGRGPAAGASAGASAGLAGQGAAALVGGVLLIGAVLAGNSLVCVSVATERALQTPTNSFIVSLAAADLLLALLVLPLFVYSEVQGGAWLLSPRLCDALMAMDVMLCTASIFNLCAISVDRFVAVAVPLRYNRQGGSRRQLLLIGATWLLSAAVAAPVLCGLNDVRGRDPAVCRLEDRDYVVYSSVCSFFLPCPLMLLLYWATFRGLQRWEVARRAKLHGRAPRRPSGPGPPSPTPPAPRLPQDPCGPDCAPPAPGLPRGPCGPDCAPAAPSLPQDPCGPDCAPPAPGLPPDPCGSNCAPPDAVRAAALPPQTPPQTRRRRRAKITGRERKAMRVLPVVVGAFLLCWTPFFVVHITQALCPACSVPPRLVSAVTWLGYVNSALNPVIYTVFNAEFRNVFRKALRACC
reportedProperty: EC50 (nM)

1. COc1ccccc1N1CCN(CCCNC(=O)NN(Cc2ccc(F)cc2)c2ccccc2)CC1
2. COc1ccccc1N1CCN(CCCNC(=O)NN(Cc2ccccc2)c2ccc(F)cc2)CC1
Ask: Choose between 1 and 2 : whose measured EC50 value is numerically larger? Indicate which entry you chose by stating its label.
Result: 2

* * *

test: Metabolic stability in pooled rat liver microsomes assessed as parent compound remaining at 40 uM measured after 60 mins in the presence of NADPH by HPLC(UV) analysis; assay type: ADME, Microsome; conditions: read-out: Stability
reportedProperty: remaining at 1 h, 40 µM (%)

COc1ccccc1N1CCN(CCCNC(=O)NCc2ccccc2-c2ccccc2)CC1    56
COc1ccccc1N1CCN(CCCNC(=O)Nc2ccccc2-c2ccccc2)CC1    57

* * *

molecular target: D(2) dopamine receptor (Homo sapiens, UniProt P14416); test: Displacement of [3H]-N-methylspiperone from human dopmaine D2S receptor expressed in CHO cell membrane assessed as inhibition constant by competition binding assay; assay type: cell membranes
Sequence (P14416 whole entry): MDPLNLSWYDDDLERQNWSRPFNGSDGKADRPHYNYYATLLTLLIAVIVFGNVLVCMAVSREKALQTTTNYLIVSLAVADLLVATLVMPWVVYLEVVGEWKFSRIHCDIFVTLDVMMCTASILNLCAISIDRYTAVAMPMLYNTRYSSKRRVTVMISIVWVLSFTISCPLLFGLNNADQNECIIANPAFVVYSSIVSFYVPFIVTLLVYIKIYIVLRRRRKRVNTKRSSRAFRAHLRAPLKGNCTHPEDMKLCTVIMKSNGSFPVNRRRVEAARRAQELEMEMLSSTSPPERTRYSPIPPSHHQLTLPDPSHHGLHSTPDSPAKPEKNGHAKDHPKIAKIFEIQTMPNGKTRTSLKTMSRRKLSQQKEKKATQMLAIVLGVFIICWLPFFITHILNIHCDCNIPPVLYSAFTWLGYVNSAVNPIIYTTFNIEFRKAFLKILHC
pKi: −log10 of the molar value.
reportedProperty: pKi

I. COc1ccccc1N1CCN(CCCNC(=O)NCc2ccccc2-c2ccc(F)cc2)CC1
II. COc1ccccc1N1CCN(CCCNC(=O)NCc2cc(F)ccc2-c2ccccc2)CC1
III. COc1ccccc1N1CCN(CCCNC(=O)NCc2ccccc2-c2ccc(C(C)C)cc2)CC1
IV. COc1ccccc1N1CCN(CCCNC(=O)Nc2cccc(-c3ccccc3)c2)CC1
V. COc1ccccc1N1CCN(CCCNC(=O)NCc2ccccc2-c2ccc(-c3ccccc3)cc2)CC1
Ask: Form: Sort by [pKi] Order [ ascending ] Your answer should be the labels, listed in the requested order.
Result: V, III, I, II, IV

I. COc1ccc(NC(=O)NCCCN2CCN(c3ccccc3OC)CC2)cc1-c1ccc(F)cc1
II. COc1ccccc1N1CCN(CCCNC(=O)NCc2ccccc2-c2ccccc2)CC1
Ask: Choose between I and II : whose measured pKi value is numerically larger? Indicate which entry you chose by stating its label.
Result: I

* * *

biological target: UniProt P14416; test: Displacement of [3H]-N-methylspiperone from human dopmaine D2L receptor expressed in CHO cell membrane assessed as inhibition constant by competition binding assay; format: cell membranes
pKi: −log10 of the molar value.
reportedProperty: pKi

Recorded pKi, per entry:
COc1ccccc1N1CCN(CCCNC(=O)NCc2ccccc2-c2ccc(F)cc2)CC1    6.68
COc1ccccc1N1CCN(CCCNC(=O)NCc2c(F)cccc2-c2ccccc2)CC1    6.68
COc1ccccc1N1CCN(CCCNC(=O)Nc2ccccc2-c2ccc(C(C)C)cc2)CC1    6.82

A. COc1ccccc1N1CCN(CCCNC(=O)Nc2ccccc2-c2ccccc2)CC1
B. COc1ccccc1N1CCN(CCCNC(=O)NCc2ccccc2-c2ccc(C)cc2)CC1
Ask: Choose between A and B : whose measured pKi value is numerically larger? Indicate which entry you chose by stating its label.
Result: B

* * *

biological target: 5-hydroxytryptamine receptor 2A (Homo sapiens)
reportedProperty: Ki (µM)
Give a bare numeral; the unit µM is implied.

Ask: # Ki lookup, item COCCOCCOc1ccc(NC(=O)NCCCN2CCN(c3ccccc3OC)CC2)c(-c2ccccc2)c1
Result: 1.5

* * *

molecular target: D(3) dopamine receptor (Homo sapiens, UniProt P35462)
Sequence (P35462 whole entry): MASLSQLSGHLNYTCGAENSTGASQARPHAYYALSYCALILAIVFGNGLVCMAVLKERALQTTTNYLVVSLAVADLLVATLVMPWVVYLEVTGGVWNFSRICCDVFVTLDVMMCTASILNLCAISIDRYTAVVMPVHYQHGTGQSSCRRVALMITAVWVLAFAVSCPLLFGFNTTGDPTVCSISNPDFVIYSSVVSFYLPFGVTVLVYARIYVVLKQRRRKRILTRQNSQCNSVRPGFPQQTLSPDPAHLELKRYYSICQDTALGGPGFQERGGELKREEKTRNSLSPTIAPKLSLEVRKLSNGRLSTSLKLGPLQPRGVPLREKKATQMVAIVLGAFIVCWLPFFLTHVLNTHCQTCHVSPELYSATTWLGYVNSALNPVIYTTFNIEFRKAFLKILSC
pKi: −log10 of the molar value.
reportedProperty: pKi

Recorded pKi, per entry:
COc1ccccc1N1CCN(CCCNC(=O)NCc2ccc(F)cc2-c2ccccc2)CC1    7.00
COc1ccccc1N1CCN(CCCNC(=O)NCc2ccccc2-c2cccc(F)c2)CC1    6.68
C#CCOc1ccc(NC(=O)NCCCN2CCN(c3ccccc3OC)CC2)c(-c2ccccc2)c1    7.41
COc1cccc(-c2ccccc2NC(=O)NCCCN2CCN(c3ccccc3OC)CC2)c1    7.62
COc1ccccc1N1CCN(CCCNC(=O)NCc2ccccc2-c2ccc(C(C)C)cc2)CC1    6.72
COc1ccccc1N1CCN(CCCNC(=O)Nc2ccccc2-c2ccc(C(C)C)cc2)CC1    7.47

P. COc1ccccc1N1CCN(CCCNC(=O)Nc2ccc(-c3ccccc3)cc2)CC1
Q. COc1ccccc1N1CCN(CCCNC(=O)NCc2ccccc2-c2ccccc2)CC1
Ask: Choose between P and Q : whose measured pKi value is numerically larger? Indicate which entry you chose by stating its label.
Result: P
(P: 7.66, Q: 6.57)

* * *

biological target: D(1A) dopamine receptor (Homo sapiens); experiment: Displacement of [3H]SCH23390 from human dopamine D1 receptor expressed in HEK293T cells assessed as inhibition constant by competition binding assay
Sequence (P21728 whole entry): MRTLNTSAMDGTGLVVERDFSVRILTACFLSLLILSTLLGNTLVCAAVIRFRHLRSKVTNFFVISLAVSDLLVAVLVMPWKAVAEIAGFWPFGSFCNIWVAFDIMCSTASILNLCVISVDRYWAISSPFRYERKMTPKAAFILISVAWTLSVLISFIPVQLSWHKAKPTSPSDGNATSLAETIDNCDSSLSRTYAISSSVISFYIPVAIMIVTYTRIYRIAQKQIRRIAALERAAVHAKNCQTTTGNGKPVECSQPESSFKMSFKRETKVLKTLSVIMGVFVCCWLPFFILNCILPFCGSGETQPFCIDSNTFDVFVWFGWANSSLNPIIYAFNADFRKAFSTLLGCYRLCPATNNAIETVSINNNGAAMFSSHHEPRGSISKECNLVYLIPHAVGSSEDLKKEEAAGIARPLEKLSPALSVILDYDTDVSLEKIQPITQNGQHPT
reportedProperty: Ki (nM)

Recorded Ki, per entry:
COc1ccccc1N1CCN(CCCNC(=O)Nc2ccccc2-c2ccccc2)CC1    730
COCCOCCOc1ccc(NC(=O)NCCCN2CCN(c3ccccc3OC)CC2)c(-c2ccccc2)c1    22
COc1ccccc1N1CCN(CCCNC(=O)NCc2ccccc2-c2ccccc2)CC1    480

1. COc1ccccc1N1CCN(CCCNC(=O)Nc2ccccc2-c2ccc(-c3ccccc3)cc2)CC1
2. COc1ccc(-c2ccccc2)c(CNC(=O)NCCCN2CCN(c3ccccc3OC)CC2)c1
Ask: Lab note: check whether 1 or 2 has the lower measured Ki. Indicate which entry you chose by stating its label.
Result: 1
(1: 16 nM, 2: 280 nM)

* * *

Biological target: 5-hydroxytryptamine receptor 1A (Homo sapiens, UniProt P08908)
Sequence (P08908 whole entry): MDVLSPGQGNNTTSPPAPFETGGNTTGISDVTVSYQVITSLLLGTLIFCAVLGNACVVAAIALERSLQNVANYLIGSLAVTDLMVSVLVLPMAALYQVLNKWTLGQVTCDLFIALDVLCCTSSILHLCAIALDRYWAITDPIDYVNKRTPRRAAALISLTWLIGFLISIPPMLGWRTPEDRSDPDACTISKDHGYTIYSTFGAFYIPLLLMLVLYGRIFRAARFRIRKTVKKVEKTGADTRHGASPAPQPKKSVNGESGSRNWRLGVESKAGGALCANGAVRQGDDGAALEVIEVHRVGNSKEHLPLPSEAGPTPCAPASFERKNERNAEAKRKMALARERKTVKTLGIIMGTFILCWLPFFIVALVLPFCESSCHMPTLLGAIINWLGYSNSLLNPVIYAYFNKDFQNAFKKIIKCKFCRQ
pKi: −log10 of the molar value.
reportedProperty: pKi

P. COc1ccccc1N1CCN(CCCNC(=O)NCc2ccccc2-c2ccccc2)CC1
Q. COc1ccccc1N1CCN(CCCNC(=O)Nc2ccccc2-c2ccc(-c3ccccc3)cc2)CC1
R. COc1ccccc1N1CCN(CCCNC(=O)Nc2ccccc2-c2ccccc2)CC1
Ask: Descending sort on pKi required. Your answer should be the labels, listed in the requested order.
Result: R, P, Q
(R: 7.60, P: 7.21, Q: 7.00)

* * *

biological target: D(2) dopamine receptor (Homo sapiens, UniProt P14416); experiment: Displacement of [3H]-N-methylspiperone from human dopmaine D2L receptor expressed in CHO cell membrane assessed as inhibition constant by competition binding assay; format: cell membranes
reportedProperty: Ki (µM)

Recorded Ki, per entry:
COc1cccc(-c2ccccc2CNC(=O)NCCCN2CCN(c3ccccc3OC)CC2)c1    0.22
COc1ccccc1N1CCN(CCCNC(=O)Nc2ccccc2-c2ccc(C(C)(C)C)cc2)CC1    0.12
COc1ccc(-c2ccccc2)c(CNC(=O)NCCCN2CCN(c3ccccc3OC)CC2)c1    0.13

A. COc1ccccc1N1CCN(CCCNC(=O)Nc2ccccc2-c2cccc(F)c2)CC1
B. COc1ccccc1N1CCN(CCCNC(=O)Nc2cccc(-c3ccccc3)c2)CC1
Ask: Lab note: check whether A or B has the lower measured Ki. Indicate which entry you chose by stating its label.
Result: B
(B: 0.046 µM, A: 0.17 µM)

* * *

experiment: Apparent permeability of the compound across basal to apical membrane in human Caco-2 cells at 50 uM incubated for 4 hrs by HPLC(UV) analysis; assay type: ADME, cell-based
reportedProperty: Papp B→A at 4 h, 50 µM

Ask: # Papp B→A at 4 h, 50 µM lookup, item COc1ccccc1N1CCN(CCCNC(=O)Nc2ccccc2-c2ccc(-c3ccccc3)cc2)CC1
Result: > 1 ×10⁻⁶ cm/s

* * *

target: D(3) dopamine receptor (Homo sapiens, UniProt P35462); assay: Displacement of [3H]-N-methylspiperone from human dopmaine D3 receptor expressed in HEK293T cells assessed as inhibition constant by competition binding assay; assay type: cell-based
reportedProperty: Ki (nM)

a. COc1ccccc1N1CCN(CCCNC(=O)NCc2cc(F)ccc2-c2ccccc2)CC1
b. COc1ccc(CNC(=O)NCCCN2CCN(c3ccccc3OC)CC2)c(-c2ccccc2)c1
Ask: Choose between a and b : whose measured Ki value is numerically larger? Indicate which entry you chose by stating its label.
Result: a
(a: 150 nM, b: 92 nM)

1. COc1ccccc1N1CCN(CCCNC(=O)NCc2cccc(F)c2-c2ccccc2)CC1
2. COc1ccc(-c2ccccc2)c(CNC(=O)NCCCN2CCN(c3ccccc3OC)CC2)c1
Ask: Choose between 1 and 2 : whose measured Ki value is numerically larger? Indicate which entry you chose by stating its label.
Result: 2
(2: 120 nM, 1: 62 nM)
